assay-system: UniProtKB P23687
Sequence (P23687 whole entry): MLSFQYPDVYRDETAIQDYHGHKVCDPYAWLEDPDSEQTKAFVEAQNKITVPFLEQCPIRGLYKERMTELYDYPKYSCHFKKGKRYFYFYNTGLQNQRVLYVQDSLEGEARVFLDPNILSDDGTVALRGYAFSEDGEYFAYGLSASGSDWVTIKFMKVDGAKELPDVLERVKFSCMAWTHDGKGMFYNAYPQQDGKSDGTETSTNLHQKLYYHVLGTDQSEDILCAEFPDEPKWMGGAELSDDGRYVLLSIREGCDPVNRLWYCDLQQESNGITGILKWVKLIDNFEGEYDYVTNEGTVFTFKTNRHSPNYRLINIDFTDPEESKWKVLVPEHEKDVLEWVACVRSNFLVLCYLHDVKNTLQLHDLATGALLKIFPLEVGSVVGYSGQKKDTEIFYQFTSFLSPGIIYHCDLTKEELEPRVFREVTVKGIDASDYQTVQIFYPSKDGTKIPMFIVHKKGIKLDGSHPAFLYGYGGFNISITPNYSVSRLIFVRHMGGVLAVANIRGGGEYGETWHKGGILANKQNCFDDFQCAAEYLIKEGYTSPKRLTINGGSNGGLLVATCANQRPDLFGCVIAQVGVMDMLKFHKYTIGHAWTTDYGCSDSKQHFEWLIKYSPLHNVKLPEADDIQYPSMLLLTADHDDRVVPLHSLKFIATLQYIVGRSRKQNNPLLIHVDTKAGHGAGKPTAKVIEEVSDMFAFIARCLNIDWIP
assay-endpoint: pIC50
Quick note: pIC50 means taking -log10 of the concentration in moles per liter.

Query: Indicate its recorded pIC50; the compound in question is O=C1OC2(c3ccc(O)cc3Oc3cc(O)ccc32)c2ccc(NC(=S)NCC(=O)N3CCC[C@H]3C(=O)N3CCC[C@H]3C(=O)CO)cc21
Reply: 6.74
